- assay summary: Solubility testing of peptides at different pH
- Type: physicochemical
- condition notes: 50 mM HCl buffer; 50 mM HCl pH 1.2; target concentration 1 mg/ml; 2 hours agitation; read-out: Solubility Buffer pH 1.2
Positions of bridges follow the written chain, without caps; N, C: chain ends. Non-standard residues stand in square brackets, D forms with d. Residues, ends and D or L forms follow the SMILES beside them. *: point of attachment. Trp(7-Me) = Cc1cccc2c(C[C@H](N)C(=O)O)c[nH]c12; 2Nal = N[C@@H](Cc1ccc2ccccc2c1)C(=O)O; 3Pal = N[C@@H](Cc1cccnc1)C(=O)O; Thp = NC1(C(=O)O)CCOCC1; Me2NCH2CH2 = CN(C)CC*; Ava = NCCCCC(=O)O
property label: solubility at 2 h

INSERT INTO measurements (compound, measurement) VALUES
  ('CC(=O)NCCCC[C@@H]1NC(=O)[C@H](Cc2c[nH]c3c(C)cccc23)NC(=O)[C@H]([C@@H](C)O)NC(=O)[C@H](CC(N)=O)NC(=O)[C@@H]2CSSC[C@H](NC1=O)C(=O)N[C@@H](Cc1ccc(OCCN(C)C)cc1)C(=O)N[C@@H](Cc1ccc3ccccc3c1)C(=O)NC1(CCOCC1)C(=O)N[C@H](C(=O)N[C@@H](CC(N)=O)C(=O)N[C@@H](Cc1cccnc1)C(N)=O)CCC(=O)NCCCCC(=O)N2 [compound 51] ([Ava]CNT[Trp(7-Me)]K(Ac)CY(Me2NCH2CH2)[2Nal][Thp]EN[3Pal]-NH2; disulfide 2-7; lactam N-11)', '≥ 1020 µg/mL');
